Where do these numbers come from? They come from PubChem BioAssay (NCI).

- Tested on: MALME-3M melanoma
- measurement notes: NCI tumour cell line growth inhibition, 48 h; in the data active = GI50 below about 0.43 µM; inactive = the rest
Use one of these outcomes when replying: active, inactive

State the result this test recorded for `O=Cc1ccc(-c2cc(C=O)c(-c3cccs3)[nH]2)s1` .
inactive

State the result this test recorded for `COc1cc2c(cc1OCCCOc1cc3c(cc1OC)C(=O)N1C[C@H](F)C[C@H]1C=N3)N=C[C@@H]1C[C@@H](F)CN1C2=O` .
inactive

State the result this test recorded for C=CCC(N[C@H](CO)c1ccccc1)c1ccc2ccccc2n1 (stereo partly drawn) .
inactive

State the result this test recorded for `CCN1CCN(C(=O)[C@]23CC[C@@H](C)[C@H](C)[C@@H]2C2=CC[C@@H]4[C@@]5(C)C/C(=C/c6ccncc6)C(=O)C(C)(C)[C@@H]5CC[C@@]4(C)[C@]2(C)CC3)CC1` .
inactive

State the result this test recorded for `COc1ccc(/C=N\NC(=O)CN2CCN(c3cc4c(cc3F)c(=O)c(C(=O)N/N=C/c3ccc(OC)c(OC)c3)cn4C3CC3)CC2)cc1OC` .
inactive

State the result this test recorded for `Cc1nc2sc(C(=O)Nc3cccc(Cl)c3C)c(N)c2cc1C(=O)/C=C/c1ccccc1` .
active

State the result this test recorded for O=c1ccn(C2OC(CO)C(O)C2F)c(=O)[nH]1 (stereo not drawn) .
inactive

State the result this test recorded for `Nc1c(C(=O)c2ccc(Cl)cc2)sc(Nc2ccccc2)c1-c1nc2ccccc2s1` .
inactive
